test: CCTE_Shafer_MEA_dev_per_network_spike_spike_percent: CCTE's Neural Network Formation Assay for Percent of Spikes in a Network Spike, Shafer Lab (AID 2284054)
Active and inactive are the calls of the source. How the source made its calls: active means hit-call score of the fitted dose curve at least 0.9, where 1 is the maximum; inactive means score below 0.9.
Use one of these outcomes when replying: 1 = active, 0 = inactive

Hey, what did the test say about C=CCC1=C(C)[C@@H](OC(=O)[C@@H]2[C@@H](C=C(C)C)C2(C)C)CC1=O ? 0

I would be grateful if you could indicate the recorded call for Cc1c(F)c(F)c(COC(=O)C2C(/C=C(\Cl)C(F)(F)F)C2(C)C)c(F)c1F (stereo not drawn) . 1

For CNC(=O)ON=CC(C)(C)SC , which call appears in the assay record? 0
